Species on record: Rattus norvegicus
test-summary: Displacement of [35S]TBPS from Wistar rat brain GABAA receptor relative to control
assay-readout: Imax (%)

1. NC(=O)OCC(COC(N)=O)c1ccccc1 [FELBAMATE] = 18
2. CC(=O)[C@H]1[C@H](CCOC(N)=O)C[C@H]2[C@@H]3CC[C@H]4C[C@H](O)CC[C@]4(C)[C@H]3CC[C@@]21C = 61
3. CC(=O)[C@H]1[C@H](CCOC(N)=O)C[C@H]2[C@@H]3CC[C@H]4C[C@H](OC(N)=O)CC[C@]4(C)[C@H]3CC[C@@]21C = 59
4. CC(=O)[C@H]1[C@H](CC(=O)O)C[C@H]2[C@@H]3CC[C@H]4C[C@H](O)CC[C@]4(C)[C@H]3CC[C@@]21C = 19
5. CC(=O)[C@H]1[C@H](C(COC(N)=O)COC(N)=O)C[C@H]2[C@@H]3CC[C@H]4C[C@H](O)CC[C@]4(C)[C@H]3CC[C@@]21C = 26
6. CC(=O)[C@H]1CC[C@H]2[C@@H]3CC[C@H]4C[C@H](O)CC[C@]4(C)[C@H]3CC[C@]12C = 79

====

test-summary: Displacement of [35S]TBPS from Wistar rat brain GABAA receptor
pIC50: −log10 of the molar value.
assay-readout: pIC50

1. NC(=O)OCC(COC(N)=O)c1ccccc1 [FELBAMATE] = 7.02
2. CC(=O)[C@H]1[C@H](CC(=O)O)C[C@H]2[C@@H]3CC[C@H]4C[C@H](O)CC[C@]4(C)[C@H]3CC[C@@]21C = 7.40
3. CC(=O)[C@H]1CC[C@H]2[C@@H]3CC[C@H]4C[C@H](O)CC[C@]4(C)[C@H]3CC[C@]12C [BREXANOLONE] = 7.10
4. CC(=O)[C@H]1[C@H](C(COC(N)=O)COC(N)=O)C[C@H]2[C@@H]3CC[C@H]4C[C@H](O)CC[C@]4(C)[C@H]3CC[C@@]21C = 7.07
5. CC(=O)[C@H]1[C@H](CCOC(N)=O)C[C@H]2[C@@H]3CC[C@H]4C[C@H](OC(N)=O)CC[C@]4(C)[C@H]3CC[C@@]21C = 6.52
6. CC(=O)[C@H]1[C@H](CCOC(N)=O)C[C@H]2[C@@H]3CC[C@H]4C[C@H](O)CC[C@]4(C)[C@H]3CC[C@@]21C = 6.12
